B1: Pistol ribozyme (parent)
chain: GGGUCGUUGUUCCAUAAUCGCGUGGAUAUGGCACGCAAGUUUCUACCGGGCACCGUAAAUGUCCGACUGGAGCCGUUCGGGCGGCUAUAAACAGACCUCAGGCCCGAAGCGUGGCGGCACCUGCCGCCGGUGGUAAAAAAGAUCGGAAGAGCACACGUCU

variants of: B1; assay: aptazyme ON/OFF ratio, guanine; higher = stronger switching; co-transcriptional cleavage with and without guanine
Please provide measured aptazyme ON/OFF ratio for the entries that follow.
Output spec: single numeric token, no unit.

(Q) Data request, read-out aptazyme ON/OFF ratio, for U7G U8A G9U U10A U11G C12U
(A) 1.16

(Q) Data request, read-out aptazyme ON/OFF ratio, for U7G G9C U10A U11G C13A
(A) 1.13

(Q) Data request, read-out aptazyme ON/OFF ratio, for U7C U8A G9A U10C U11A C12U C13G
(A) 1.15

(Q) Data request, read-out aptazyme ON/OFF ratio, for U8G G9U C12U
(A) 1.77

(Q) Data request, read-out aptazyme ON/OFF ratio, for U7C U8C G9U U11C C12A C13U
(A) 1.14

(Q) Data request, read-out aptazyme ON/OFF ratio, for U7C U8A U10G U11A C12G
(A) 1.33

(Q) Data request, read-out aptazyme ON/OFF ratio, for U7A U8A G9C U10A U11G C12G
(A) 1.19

(Q) Data request, read-out aptazyme ON/OFF ratio, for U7A U8G G9C U10C U11A C12G C13G
(A) 1.21

(Q) Data request, read-out aptazyme ON/OFF ratio, for U7A U8G G9A U10A U11A C12A
(A) 1.45

(Q) Data request, read-out aptazyme ON/OFF ratio, for G9U U10G U11C
(A) 1.28

(Q) Data request, read-out aptazyme ON/OFF ratio, for U8C G9A U10G C12A C13A
(A) 1.27

(Q) Data request, read-out aptazyme ON/OFF ratio, for U7A G9A U10G U11C C12U C13G
(A) 1.18

(Q) Data request, read-out aptazyme ON/OFF ratio, for U7C U8A G9U U11A C12A C13A
(A) 1.08

(Q) Data request, read-out aptazyme ON/OFF ratio, for U8G G9U U11C C13A
(A) 1.1

(Q) Data request, read-out aptazyme ON/OFF ratio, for U7C U8G G9C U10G C12A
(A) 1.21

(Q) Data request, read-out aptazyme ON/OFF ratio, for U7A G9A U10C U11C C12G C13U
(A) 1.04

(Q) Data request, read-out aptazyme ON/OFF ratio, for U8G G9U C13U
(A) 1.41

(Q) Data request, read-out aptazyme ON/OFF ratio, for U7A G9U U10C U11G C12U C13A
(A) 1.15

(Q) Data request, read-out aptazyme ON/OFF ratio, for U10G C12G C13A
(A) 1.17

(Q) Data request, read-out aptazyme ON/OFF ratio, for U8A G9C U10G U11C C13U
(A) 1.03

(Q) Data request, read-out aptazyme ON/OFF ratio, for U8G G9U U11C C12A C13A
(A) 1.09

(Q) Data request, read-out aptazyme ON/OFF ratio, for U7A U8A G9U U10G U11G C12G
(A) 1.41

Where these numbers come from: the RNAGym collection of RNA variant scans (doi:10.1021/acssynbio.7b00057)
